Test: Phase I DDI study Part 2: tazemetostat plasma PK alone and with rifampin (noncompartmental analysis)
Type: in vivo, human
Conditions: human, plasma, oral, Part 2; tazemetostat 800 mg multiple dosing with rifampin 600 mg once daily, Day 24; plasma; read-out: AUC0‐12 h, GeoMean (CV%)
reportedProperty: AUC (ng·h/mL)
# number only, unit ng·h/mL dropped from output

// AUC value for CCN(c1cc(-c2ccc(CN3CCOCC3)cc2)cc(C(=O)NCc2c(C)cc(C)[nH]c2=O)c1C)C1CCOCC1 [Tazemetostat] : 588

---

Test: Phase I DDI study Part 1: tazemetostat plasma PK alone and with itraconazole (noncompartmental analysis)
Assay type: in vivo, human
Conditions: human, plasma, oral, 400 mg, Part 1; tazemetostat 400 mg twice daily alone, multiple dosing, Day 15; plasma; read-out: t1/2, mean (SD) (converted)
Excerpt: This was a Phase I, multicenter, open‐label, 2‐part study encompassing a fixed‐sequence design that aimed to characterize the PK of tazemetostat when administered as single and twice‐daily oral doses alone or in combination with either itraconazole (Part 1) or rifampin (Part 2). […] Part 1 of the study evaluated the DDI between tazemetostat and itraconazole. […]
reportedProperty: half-life (h)
# number only, unit h dropped from output

// half-life value for CCN(c1cc(-c2ccc(CN3CCOCC3)cc2)cc(C(=O)NCc2c(C)cc(C)[nH]c2=O)c1C)C1CCOCC1 [Tazemetostat] : 8.62

---

Experiment: Phase I DDI study Part 1: tazemetostat plasma PK alone and with itraconazole (noncompartmental analysis)
Assay type: in vivo, human
Conditions: human, plasma, po, 400 mg, Part 1; tazemetostat 400 mg oral single dose alone, Day 1; plasma; read-out: AUC0‐12 h, mean (SD)
reportedProperty: AUC (ng·h/mL)
# number only, unit ng·h/mL dropped from output

// AUC value for CCN(c1cc(-c2ccc(CN3CCOCC3)cc2)cc(C(=O)NCc2c(C)cc(C)[nH]c2=O)c1C)C1CCOCC1 : 2460

---

Assay: Phase I DDI study Part 1: tazemetostat plasma PK alone and with itraconazole (noncompartmental analysis)
Assay type: in vivo, human
Conditions: human, plasma, oral, 400 mg, Part 1; tazemetostat 400 mg twice daily alone, multiple dosing, Day 15; plasma; read-out: AUClast, mean (SD)
Excerpt: This was a Phase I, multicenter, open‐label, 2‐part study encompassing a fixed‐sequence design that aimed to characterize the PK of tazemetostat when administered as single and twice‐daily oral doses alone or in combination with either itraconazole (Part 1) or rifampin (Part 2). […] Part 1 of the study evaluated the DDI between tazemetostat and itraconazole. […]
reportedProperty: AUC(0-t) (ng·h/mL)
# number only, unit ng·h/mL dropped from output

// AUC(0-t) value for CCN(c1cc(-c2ccc(CN3CCOCC3)cc2)cc(C(=O)NCc2c(C)cc(C)[nH]c2=O)c1C)C1CCOCC1 [Tazemetostat] : 2340

---

Assay: Phase I DDI study Part 2: tazemetostat plasma PK alone and with rifampin (noncompartmental analysis)
Assay type: in vivo, human
Conditions: human, plasma, po, 800 mg, Part 2; tazemetostat 800 mg oral single dose alone, Day 1; plasma; read-out: Cmax, mean (SD)
reportedProperty: Cmax (ng/mL)
# number only, unit ng/mL dropped from output

// Cmax value for CCN(c1cc(-c2ccc(CN3CCOCC3)cc2)cc(C(=O)NCc2c(C)cc(C)[nH]c2=O)c1C)C1CCOCC1 : 1550

---

Assay: Phase I DDI study Part 1: tazemetostat plasma PK alone and with itraconazole (noncompartmental analysis)
Format: in vivo, human
Conditions: human, plasma, oral, Part 1; tazemetostat 400 mg multiple dosing with itraconazole 200 mg once daily, Day 36; plasma; read-out: AUClast, GeoMean (CV%)
reportedProperty: AUC(0-t) (ng·h/mL)
# number only, unit ng·h/mL dropped from output

// AUC(0-t) value for CCN(c1cc(-c2ccc(CN3CCOCC3)cc2)cc(C(=O)NCc2c(C)cc(C)[nH]c2=O)c1C)C1CCOCC1 : 5750

---

Assay: Phase I DDI study Part 1: tazemetostat plasma PK alone and with itraconazole (noncompartmental analysis)
Assay type: in vivo, human
Conditions: human, plasma, po, 400 mg, Part 1; tazemetostat 400 mg oral single dose alone, Day 1; plasma; read-out: AUClast, mean (SD)
Excerpt: This was a Phase I, multicenter, open‐label, 2‐part study encompassing a fixed‐sequence design that aimed to characterize the PK of tazemetostat when administered as single and twice‐daily oral doses alone or in combination with either itraconazole (Part 1) or rifampin (Part 2). […] Part 1 of the study evaluated the DDI between tazemetostat and itraconazole. […]
reportedProperty: AUC(0-t) (ng·h/mL)
# number only, unit ng·h/mL dropped from output

// AUC(0-t) value for CCN(c1cc(-c2ccc(CN3CCOCC3)cc2)cc(C(=O)NCc2c(C)cc(C)[nH]c2=O)c1C)C1CCOCC1 [Tazemetostat] : 3250

---

Test: Phase I DDI study Part 2: tazemetostat plasma PK alone and with rifampin (noncompartmental analysis)
Type: in vivo, human
Details: human, plasma, po, 800 mg, Part 2; tazemetostat 800 mg oral single dose alone, Day 1; plasma; read-out: AUClast, GeoMean (CV%)
reportedProperty: AUC(0-t) (ng·h/mL)
# number only, unit ng·h/mL dropped from output

// AUC(0-t) value for CCN(c1cc(-c2ccc(CN3CCOCC3)cc2)cc(C(=O)NCc2c(C)cc(C)[nH]c2=O)c1C)C1CCOCC1 : 5200

---

Assay: Phase I DDI study Part 2: tazemetostat plasma PK alone and with rifampin (noncompartmental analysis)
Format: in vivo, human
Conditions: human, plasma, oral, 800 mg, Part 2; tazemetostat 800 mg twice daily alone, multiple dosing, Day 15; plasma; read-out: Cmax, GeoMean (CV%)
reportedProperty: Cmax (ng/mL)
# number only, unit ng/mL dropped from output

// Cmax value for CCN(c1cc(-c2ccc(CN3CCOCC3)cc2)cc(C(=O)NCc2c(C)cc(C)[nH]c2=O)c1C)C1CCOCC1 : 1100

---

Assay: Phase I DDI study Part 1: tazemetostat plasma PK alone and with itraconazole (noncompartmental analysis)
Format: in vivo, human
Details: human, plasma, oral, Part 1; tazemetostat 400 mg multiple dosing with itraconazole 200 mg once daily, Day 36; plasma; read-out: t1/2, mean (SD) (converted)
Source text: This was a Phase I, multicenter, open‐label, 2‐part study encompassing a fixed‐sequence design that aimed to characterize the PK of tazemetostat when administered as single and twice‐daily oral doses alone or in combination with either itraconazole (Part 1) or rifampin (Part 2). […] Part 1 of the study evaluated the DDI between tazemetostat and itraconazole. […]
reportedProperty: half-life (h)
# number only, unit h dropped from output

// half-life value for CCN(c1cc(-c2ccc(CN3CCOCC3)cc2)cc(C(=O)NCc2c(C)cc(C)[nH]c2=O)c1C)C1CCOCC1 [Tazemetostat] : 12.9

---

Test: Phase I DDI study Part 1: tazemetostat plasma PK alone and with itraconazole (noncompartmental analysis)
Assay type: in vivo, human
Settings: human, plasma, oral, 400 mg, Part 1; tazemetostat 400 mg twice daily alone, multiple dosing, Day 15; plasma; read-out: Cmax, mean (SD)
reportedProperty: Cmax (ng/mL)
# number only, unit ng/mL dropped from output

// Cmax value for CCN(c1cc(-c2ccc(CN3CCOCC3)cc2)cc(C(=O)NCc2c(C)cc(C)[nH]c2=O)c1C)C1CCOCC1 [Tazemetostat] : 643

---

Experiment: Phase I DDI study Part 2: tazemetostat plasma PK alone and with rifampin (noncompartmental analysis)
Format: in vivo, human
Settings: human, plasma, oral, 800 mg, Part 2; tazemetostat 800 mg twice daily alone, multiple dosing, Day 15; plasma; read-out: AUClast, mean (SD)
reportedProperty: AUC(0-t) (ng·h/mL)
# number only, unit ng·h/mL dropped from output

// AUC(0-t) value for CCN(c1cc(-c2ccc(CN3CCOCC3)cc2)cc(C(=O)NCc2c(C)cc(C)[nH]c2=O)c1C)C1CCOCC1 : 5220

---

Test: Phase I DDI study Part 2: tazemetostat plasma PK alone and with rifampin (noncompartmental analysis)
Format: in vivo, human
Details: human, plasma, oral, 800 mg, Part 2; tazemetostat 800 mg twice daily alone, multiple dosing, Day 15; plasma; read-out: t1/2, mean (SD) (converted)
reportedProperty: half-life (h)
# number only, unit h dropped from output

// half-life value for CCN(c1cc(-c2ccc(CN3CCOCC3)cc2)cc(C(=O)NCc2c(C)cc(C)[nH]c2=O)c1C)C1CCOCC1 [Tazemetostat] : 7.7
